TARGET_DESC: helicase domain of the Pol θ protein (Homo sapiens, UniProt O75417)
Construct: The helicase domain of the Pol θ protein was purified from insect protein expression system; made in house; host or cells: insect protein expression system
Sequence (O75417 102-554 limits assumed): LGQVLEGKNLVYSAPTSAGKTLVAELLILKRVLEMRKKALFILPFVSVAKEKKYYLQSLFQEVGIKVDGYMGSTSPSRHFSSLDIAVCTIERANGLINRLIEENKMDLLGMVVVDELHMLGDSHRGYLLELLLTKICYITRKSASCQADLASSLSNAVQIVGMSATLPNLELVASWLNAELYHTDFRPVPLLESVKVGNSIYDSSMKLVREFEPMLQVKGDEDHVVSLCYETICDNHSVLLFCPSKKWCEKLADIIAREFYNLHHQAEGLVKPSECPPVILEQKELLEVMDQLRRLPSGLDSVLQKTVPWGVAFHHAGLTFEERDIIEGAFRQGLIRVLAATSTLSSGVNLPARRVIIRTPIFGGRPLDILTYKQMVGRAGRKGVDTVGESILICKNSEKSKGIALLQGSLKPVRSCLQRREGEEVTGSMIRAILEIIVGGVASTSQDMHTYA
ASSAY_DETAILS: Biochemical Activity Assay (ADP Glo Assay) of Pol θ inhibitor, ATPase activity
CONDITION_SET: ADP-Glo assay, ATPase activity of Pol θ helicase domain, ssDNA substrate; read-out: Biochemical assay IC50
Parameter log10(IC50): see the listing below.
Reminder: these figures are log10 of reported IC50, in nM before transformation.

// solved cases for log10(IC50) follow
COMPOUND	TARGET_DESC	log10(IC50)
COc1cnc(Cl)cc1-c1cc(C)ncc1C(=O)Nc1nc2ccc(C3CCN(C)CC3)nc2s1 [Example 36]	helicase domain of the Pol θ protein (Homo sapiens, UniProt O75417)	2.37
COc1cnc(Cl)cc1-c1cc(C)ncc1C(=O)Nc1nc2ncc(N3CCC(O)CC3)nc2s1 [Example 70]	helicase domain of the Pol θ protein (Homo sapiens, UniProt O75417)	0.44
COc1cnc(C(F)F)cc1-c1cc(C)ncc1C(=O)Nc1nc2cnc(-c3c(C)nnn3C3CC3)cc2s1 [Example 213]	helicase domain of the Pol θ protein (Homo sapiens, UniProt O75417)	0.56
COc1cnc(Cl)cc1-c1cc(C)ncc1C(=O)Nc1nc2ccc(-c3ccn(C)n3)nc2s1 [Example 24]	helicase domain of the Pol θ protein (Homo sapiens, UniProt O75417)	1.18

Record CCP(=O)(CC)c1ccc(-c2cc3sc(NC(=O)c4cnc(C)cc4-c4cc(Cl)ncc4OC)nc3cc2F)cc1 [Example 189] : what is its log10(IC50) with helicase domain of the Pol θ protein (Homo sapiens, UniProt O75417)?
0.91

Record COc1cnc(Cl)cc1-c1cc(C)ncc1C(=O)Nc1nc2cnc(-c3c(C)cnn3C(C)C)cc2s1 [Example 212] : what is its log10(IC50) with helicase domain of the Pol θ protein (Homo sapiens, UniProt O75417)?
0.54

Record COc1cnc(Cl)cc1-c1cc(C)ncc1C(=O)Nc1nc2ncc(N3CCC(NS(C)(=O)=O)CC3)cc2s1 [Example 68] : what is its log10(IC50) with helicase domain of the Pol θ protein (Homo sapiens, UniProt O75417)?
0.14

Record COc1cnc(Cl)c(F)c1-c1cc(C)ncc1C(=O)Nc1nc2ncc(N3CCOCC3)cc2s1 [Example 49] : what is its log10(IC50) with helicase domain of the Pol θ protein (Homo sapiens, UniProt O75417)?
0.88

Record COc1cnc(Cl)cc1-c1cc(C)ncc1C(=O)Nc1nc2ncc(N3CCS(=O)(=O)CC3)cc2s1 [Example 50] : what is its log10(IC50) with helicase domain of the Pol θ protein (Homo sapiens, UniProt O75417)?
0.92

Record COc1cnc(Cl)cc1-c1cc(C)ncc1C(=O)Nc1nc2cc(F)c(C3=CCC(O)CC3)cc2s1 (centres unmarked) [Example 84] : what is its log10(IC50) with helicase domain of the Pol θ protein (Homo sapiens, UniProt O75417)?
0.26

Record COc1cnc(Cl)cc1-c1cc(C)ncc1C(=O)Nc1nc2ncc(N3CC4(CC(O)C4)C3)nc2s1 [Example 133] : what is its log10(IC50) with helicase domain of the Pol θ protein (Homo sapiens, UniProt O75417)?
0.84
